These entries and their values trace back to paper PMC9120017.

Target: mouse TMEM16A mutant I640A (Mus musculus, UniProt Q8BHY3, I640A)
Construct: expressed in transfected cells; host or cells: HEK293T
Sequence (Q8BHY3 whole entry I640A): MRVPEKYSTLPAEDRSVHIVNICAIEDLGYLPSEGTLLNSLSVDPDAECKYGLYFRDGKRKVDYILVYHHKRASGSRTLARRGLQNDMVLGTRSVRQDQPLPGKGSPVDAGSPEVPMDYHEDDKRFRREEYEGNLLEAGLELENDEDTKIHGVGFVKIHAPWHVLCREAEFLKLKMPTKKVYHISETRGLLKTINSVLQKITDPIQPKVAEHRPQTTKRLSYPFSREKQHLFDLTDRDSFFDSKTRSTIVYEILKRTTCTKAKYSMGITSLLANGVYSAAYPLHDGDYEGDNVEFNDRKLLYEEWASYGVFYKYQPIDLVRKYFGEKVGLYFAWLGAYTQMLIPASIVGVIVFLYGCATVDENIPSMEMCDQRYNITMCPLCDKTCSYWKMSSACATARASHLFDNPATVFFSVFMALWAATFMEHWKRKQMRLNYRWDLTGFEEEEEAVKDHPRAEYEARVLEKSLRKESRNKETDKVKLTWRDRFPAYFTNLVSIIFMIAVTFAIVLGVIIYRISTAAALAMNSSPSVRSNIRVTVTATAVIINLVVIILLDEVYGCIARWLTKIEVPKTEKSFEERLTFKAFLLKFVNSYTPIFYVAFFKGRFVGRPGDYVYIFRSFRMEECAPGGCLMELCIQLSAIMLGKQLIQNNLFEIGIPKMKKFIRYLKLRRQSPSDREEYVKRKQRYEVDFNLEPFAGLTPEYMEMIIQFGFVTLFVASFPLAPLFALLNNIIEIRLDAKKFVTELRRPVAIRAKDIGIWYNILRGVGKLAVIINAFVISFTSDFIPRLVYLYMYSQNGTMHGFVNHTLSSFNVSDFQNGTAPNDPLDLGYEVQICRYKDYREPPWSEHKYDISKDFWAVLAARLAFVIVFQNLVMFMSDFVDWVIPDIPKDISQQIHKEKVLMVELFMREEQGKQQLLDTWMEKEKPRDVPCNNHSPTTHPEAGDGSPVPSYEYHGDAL
Experiment: Inside-out patch recording of 1PBC block, mutant I640A
Format: cell-based
Conditions: 60 mV; 15 µM Ca2+
QUANTITY: pIC50
Scale explanation: pIC50 corresponds to minus log10 of a concentration expressed in moles per litre.

Consider the molecule N#Cc1c(C(F)(F)F)cc(O)n2c1nc1ccccc12 [1PBC] and give its measured pIC50.
4.64

----------
Target: mouse TMEM16A mutant Y514A (Mus musculus, UniProt Q8BHY3, Y514A)
Construct: expressed in transfected cells; host or cells: HEK293T
Sequence (Q8BHY3 whole entry Y514A): as the sequence (Q8BHY3 whole entry I640A) above, with Y514A, A640I counted along it
Experiment: Inside-out patch recording of 1PBC block, mutant Y514A
Type: cell-based
Conditions: -60 mV; 2 µM Ca2+
QUANTITY: IC50 (µM)
The reply should be a number in µM, with the unit left off.

Look up IC50: N#Cc1c(C(F)(F)F)cc(O)n2c1nc1ccccc12 [1PBC]
40.6
